assayed-system: HIV Env of isolate 1394C9G1(Rev-) (clade C) (HIV)
protocol: cell-based or functional assay
recorded-endpoint: IC50 (µg/ml) with constrains
# include the unit after the value

PGDM1400 (antibody, V domains shown) VH: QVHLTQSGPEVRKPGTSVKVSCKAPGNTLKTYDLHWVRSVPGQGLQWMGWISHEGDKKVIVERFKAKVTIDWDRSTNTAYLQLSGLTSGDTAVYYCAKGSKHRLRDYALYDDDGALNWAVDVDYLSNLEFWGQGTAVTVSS VL: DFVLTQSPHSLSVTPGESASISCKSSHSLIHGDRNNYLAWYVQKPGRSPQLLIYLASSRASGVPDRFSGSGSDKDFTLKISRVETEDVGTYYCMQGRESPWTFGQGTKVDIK = 0.003 µg/mL
ePGDM5 (antibody, V domains shown) VH: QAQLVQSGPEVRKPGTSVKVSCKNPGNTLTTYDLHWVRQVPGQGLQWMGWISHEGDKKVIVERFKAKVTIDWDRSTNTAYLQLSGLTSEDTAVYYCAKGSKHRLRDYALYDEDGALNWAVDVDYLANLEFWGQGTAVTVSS VL: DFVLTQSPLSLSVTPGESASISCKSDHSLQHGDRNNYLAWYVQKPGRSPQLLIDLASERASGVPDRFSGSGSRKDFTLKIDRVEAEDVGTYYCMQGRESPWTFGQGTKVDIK = 0.002 µg/mL
ePGDM13 (antibody, V domains shown) VH: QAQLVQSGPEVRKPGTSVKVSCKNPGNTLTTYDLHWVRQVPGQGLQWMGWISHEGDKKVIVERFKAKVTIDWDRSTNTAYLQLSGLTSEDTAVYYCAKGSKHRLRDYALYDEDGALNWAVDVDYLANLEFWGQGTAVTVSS VL: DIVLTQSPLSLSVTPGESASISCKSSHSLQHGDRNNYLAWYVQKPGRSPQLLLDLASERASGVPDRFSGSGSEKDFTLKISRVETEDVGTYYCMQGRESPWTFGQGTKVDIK = 0.003 µg/mL

# input Please look up its IC50 (µg/ml) with constrains: ePGDM9 (antibody, V domains shown) VH: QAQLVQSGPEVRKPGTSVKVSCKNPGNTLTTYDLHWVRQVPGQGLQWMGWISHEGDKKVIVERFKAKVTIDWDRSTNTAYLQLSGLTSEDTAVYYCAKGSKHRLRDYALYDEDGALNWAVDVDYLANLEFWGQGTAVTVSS VL: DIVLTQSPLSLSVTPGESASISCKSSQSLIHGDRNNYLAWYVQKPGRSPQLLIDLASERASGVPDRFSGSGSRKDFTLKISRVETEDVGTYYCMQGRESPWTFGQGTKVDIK
# output 0.001 µg/mL

meta.source: patent US20230134571A1
